- SYSTEM_UNDER_TEST: IRAK4 (Homo sapiens, UniProt Q9NWZ3)
- Construct: endogenous in cells; host or cells: Karpas299
- Sequence (Q9NWZ3 1-460): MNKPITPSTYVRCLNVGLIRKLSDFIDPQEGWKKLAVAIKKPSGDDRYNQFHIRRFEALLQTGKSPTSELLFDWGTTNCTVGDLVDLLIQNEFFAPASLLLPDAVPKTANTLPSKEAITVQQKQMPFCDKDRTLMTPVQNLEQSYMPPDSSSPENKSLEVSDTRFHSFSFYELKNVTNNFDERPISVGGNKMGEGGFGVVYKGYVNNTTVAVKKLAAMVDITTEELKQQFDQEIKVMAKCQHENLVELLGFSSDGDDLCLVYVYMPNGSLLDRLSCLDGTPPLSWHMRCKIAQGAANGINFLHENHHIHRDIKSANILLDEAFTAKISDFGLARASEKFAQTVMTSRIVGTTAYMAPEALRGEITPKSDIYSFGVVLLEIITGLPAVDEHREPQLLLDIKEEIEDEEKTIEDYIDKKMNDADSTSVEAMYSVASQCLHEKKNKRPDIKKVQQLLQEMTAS
- METHOD_SUMMARY: IRAK4 Degradation Assay with Human Serum (Karpas299, HTRF/TR-FRET)
- Assay type: cell-based
- STATED_CONDITIONS: Karpas-299 in human serum, 24 hrs treatment; read-out: IRAK4 degradtion with human serum assay Dmax (%)
ENDPOINT_LABEL: Dmax (%)

CC(C)(O)c1cc2nn([C@H]3CC[C@H](N4CCN(C5CCN(c6ccc(C7CCC(=O)NC7=O)cc6)CC5)CC4)CC3)cc2cc1NC(=O)c1ccc2cc(C#N)cnn12 (stereo partly shown): 98
CC(C)(O)c1cc2nn([C@H]3CC[C@H](N4CCN(C(=O)C5CCN(c6ccc7c(c6)C(=O)N(C6CCC(=O)NC6=O)C7=O)CC5)CC4)CC3)cc2cc1NC(=O)c1ccc2cc(C#N)cnn12 (stereo partly shown): 94
CC(C)(O)c1cc2nn([C@H]3CC[C@H](N4CCN(C(=O)CNc5cc(F)c([C@H]6CCC(=O)NC6=O)c(F)c5)CC4)CC3)cc2cc1NC(=O)c1ccc2cc(C#N)cnn12: 102
Cc1cc(N2CCC(N3CCN([C@H]4CC[C@H](n5cc6cc(NC(=O)c7ccc8cc(C#N)cnn78)c(C(C)(C)O)cc6n5)CC4)CC3)CC2)cc(C)c1[C@H]1CCC(=O)NC1=O: 98
N#Cc1cnn2c(C(=O)Nc3cc4cn([C@H]5CC[C@H](N6CCN(C(=O)C7CN(c8cc(F)c([C@H]9CCC(=O)NC9=O)c(F)c8)C7)CC6)CC5)nc4c4c3OCO4)ccc2c1: 73
COC[C@@H]1CN([C@H]2CC[C@H](n3cc4cc(NC(=O)c5ccc6cc(C#N)cnn56)c(C(C)(C)O)cc4n3)CC2)CCN1C(=O)C1CN(c2cc(F)c(N3CCC(=O)NC3=O)c(F)c2)C1: 91
COC[C@@H]1CN(CC2CN(c3cc(F)c([C@H]4CCC(=O)NC4=O)c(F)c3)C2)CCN1[C@H]1CC[C@H](n2cc3cc(NC(=O)c4ccc5cc(C#N)cnn45)c(C(C)(C)O)cc3n2)CC1: 95
CC(C)(O)c1cc2nn([C@H]3CC[C@H](N4CCN(C(=O)[C@@H]5CCN(c6cc(F)c([C@H]7CCC(=O)NC7=O)c(F)c6)C5)CC4)CC3)cc2cc1NC(=O)c1ccc2cc(C#N)cnn12: 101
CC(C)(O)c1cc2nn([C@H]3CC[C@H](N4CCN(C[C@H]5C[C@H](c6cc(F)c([C@H]7CCC(=O)NC7=O)c(F)c6)C5)CC4)CC3)cc2cc1NC(=O)c1ccc2cc(C#N)cnn12: 96
CC(C)(O)c1cc2nn(C34CC(N5CCN(C(=O)[C@@H]6CCN(c7cc(F)c([C@H]8CCC(=O)NC8=O)c(F)c7)C6)CC5)(C3)C4)cc2cc1NC(=O)c1cccc(C(F)(F)F)n1: 98
CC(C)(O)c1cc2nn([C@H]3CC[C@H](N4CCN([C@@H]5CCN(c6cc(F)c(C7CCC(=O)NC7=O)c(F)c6)C5)CC4)CC3)cc2cc1NC(=O)c1ccc2cc(C#N)cnn12 (stereo partly shown): 95
CC(C)(O)c1cc2nn(C3CCN([C@H]4CCN(CCc5cc(F)c([C@H]6CCC(=O)NC6=O)c(F)c5)CC4(F)F)CC3)cc2cc1NC(=O)c1ccc2cc(C#N)cnn12: 99
Cc1nc(C2CCC(=O)NC2=O)ccc1N1CCC(N2CCN(C34CCC(n5cc6cc(NC(=O)c7ccc8cc(C#N)cnn78)c(C(C)(C)O)cc6n5)(CC3)CC4)CC2)CC1 (stereo not shown): 99
CC(C)(O)c1cc2nn(C34CC(N5CCN(CC6CCN(c7ccc8c(c7)CN(C7CCC(=O)NC7=O)C8=O)CC6)CC5)(C3)C4)cc2cc1NC(=O)c1ccc2cc(C#N)cnn12 (stereo not shown): 94
C[C@@H]1CN(CCc2cc(F)c([C@H]3CCC(=O)NC3=O)c(F)c2)CCN1[C@H]1CC[C@H](n2cc3cc(NC(=O)c4ccc5cc(C#N)cnn45)c(C(C)(C)O)cc3n2)CC1: 99
COC[C@@H]1CN([C@H]2CC[C@H](n3cc4cc(NC(=O)c5ccc6cc(C#N)cnn56)c(C(C)(C)O)cc4n3)CC2)CCN1C1CN(c2cc(F)c([C@H]3CCC(=O)NC3=O)c(F)c2)C1: 95
COC[C@H]1CN(CCc2cc(F)c([C@H]3CCC(=O)NC3=O)c(F)c2)CCN1[C@H]1CC[C@H](n2cc3cc(NC(=O)c4ccc5cc(C#N)cnn45)c(C(C)(C)O)cc3n2)CC1: 98
COC[C@@H]1CN(C2CCN(c3cc(F)c([C@H]4CCC(=O)NC4=O)c(F)c3)CC2)CCN1[C@H]1CC[C@H](n2cc3cc(NC(=O)c4ccc5cc(C#N)cnn45)c(C(C)(C)O)cc3n2)CC1: 101
CC(C)(O)c1cc2nn([C@H]3CC[C@H](N4CCN([C@H]5C[C@@H](c6cc(F)c([C@H]7CCC(=O)NC7=O)c(F)c6)C5)CC4)CC3)cc2cc1NC(=O)c1ccc2cc(C#N)cnn12: 97
